# protocol-text: qHTS RealTime-Glo MT Cell Viability Assay in HEK293 cells - 16 hour (AID 1224872); further: nearly all actives have a fitted effect of over 50% in size
# condition-set: RealTime-Glo luminescence; series mostly up to 76.8 µM
Results filed as inconclusive are left out. Calls of active or inactive are those of the source. The call rests on the fitted dose curve; in most records, active means well fitted cell-killing curve with a large enough effect in the repeat runs; inconclusive means weak or mixed curves, or effect the other way; inactive means flat fitted curve, though single readings scatter.
Outcomes: Yes = active, No = inactive

{"columns": ["smiles-code", "class-label"],
 "data": [
  ["COc1cccc2c1C(=O)c1c(O)c3c(c(O)c1C2=O)C[C@@](O)(C(=O)CO)C[C@@H]3O[C@H]1C[C@H](N)[C@H](O)[C@H](C)O1", "Yes"],
  ["CN(C)CCC=C1c2ccccc2CCc2ccccc21", "No"],
  ["O=S(=O)(O)c1ccc(O)cc1", "No"],
  ["O=P(O)(O)O", "No"],
  ["CCOCCOCCO", "No"],
  ["C[C@]12CCC(=O)C=C1CC[C@@H]1[C@@H]2C(=O)C[C@@]2(C)[C@H]1CC[C@]2(O)C(=O)CO", "No"]
]}

###

# protocol-text: qHTS RealTime-Glo MT Cell Viability Assay in HEK293 cells - 32 hour (AID 1224868); further: nearly all actives have a fitted effect of over 50% in size; further: potency means the concentration at half of the fitted maximal effect
# condition-set: RealTime-Glo luminescence; series mostly up to 76.8 µM
Inconclusive results are not listed. The source made the active and inactive calls. The call rests on the fitted dose curve; in most records, active means well fitted cell-killing curve with a large enough effect in the repeat runs; inconclusive means weak or mixed curves, or effect the other way; inactive means flat fitted curve, though single readings scatter.
measured-parameter: Potency

{"columns": ["compound", "val"],
 "data": [
  ["CCC(C)c1ccccc1O (configuration not stated)", "inactive"],
  ["Nc1ccccc1N", "inactive"],
  ["CN(C)c1nc(N(C)C)nc(N(C)C)n1", "inactive"],
  ["Cc1cc2nc3c(=O)[nH]c(=O)nc-3n(C[C@H](O)[C@H](O)[C@H](O)CO)c2cc1C", "inactive"],
  ["CC(CCC(=O)O)(c1ccc(O)cc1)c1ccc(O)cc1", "inactive"],
  ["Nc1ccc(Cl)cc1Cl", "inactive"],
  ["CCCCC(CC)COP(=O)(OCC(CC)CCCC)OCC(CC)CCCC (configuration not stated)", "inactive"],
  ["CC(=O)CC/C=C(\\C)CCC=C(C)C", "inactive"],
  ["C[Si](C)(C)O[Si](C)(C)C", "inactive"],
  ["OC1CCCCCCCCCCC1", "inactive"],
  ["C=C(C)C(=O)OCCOC(=O)C(=C)C", "inactive"],
  ["Cc1c(C(N)=O)cc([N+](=O)[O-])cc1[N+](=O)[O-]", "inactive"],
  ["Cc1cccc([N+](=O)[O-])c1C", "inactive"],
  ["CC(C)OC=O", "inactive"],
  ["COc1ccc(OC)c(C(O)CNC(=O)CN)c1 (configuration not stated)", "inactive"],
  ["CC(C(=O)O)c1cccc(C(=O)c2ccccc2)c1 (configuration not stated)", "inactive"],
  ["Cc1ncc[nH]1", "inactive"],
  ["CCC(C)(O)CCCC(C)C (configuration not stated)", "inactive"],
  ["COC(C)COC(C)COC(C)CO (configuration not stated)", "inactive"],
  ["COC(=O)CCC(=O)OC", "inactive"],
  ["O=S(=O)(O)c1ccc(O)cc1", "inactive"],
  ["C[C@]12CC[C@H]3[C@@H](CCC4=CC(=O)CC[C@@]43C)[C@@H]1CC[C@@H]2C(=O)CO", "24.5 µM (active)"],
  ["O=C(COc1ccc(Cl)cc1)N1CCN(Cc2ccc3c(c2)OCO3)CC1", "43.6 µM (active)"],
  ["C[C@]12CCC(=O)C=C1CC[C@@H]1[C@@H]2C(=O)C[C@@]2(C)[C@H]1CC[C@]2(O)C(=O)CO", "inactive"],
  ["Cc1ccc2c(n1)Oc1ccc(C(C)C(=O)OCC(=O)N(C)C)cc1C2 (configuration not stated)", "inactive"],
  ["CCCCC/C=C/C=C/C=O", "inactive"],
  ["O=C1OC2(c3cc(Br)c(O)c(Br)c3Oc3c2cc(Br)c(O)c3Br)c2c(Cl)c(Cl)c(Cl)c(Cl)c21", "inactive"]
]}
